Test system: DU-145 prostate
Assay: NCI tumour cell line growth inhibition, 48 h
Here, each record is paired with measured TGI data.
Readout name: TGI

INSERT INTO results (compound, system_name, readout_name, meas_value) VALUES
  ('NC(N)=NCCN1CC2CCC(CC2)C1', 'DU-145 prostate', 'TGI', '> 100 µM'),
  ('CCOC(=O)NC(Nc1ccc(C)cc1)(C(F)(F)F)C(F)(F)F', 'DU-145 prostate', 'TGI', '> 100 µM'),
  ('COc1cc(OC)cc(Oc2nc3ccccc3nc2C(F)(F)F)c1', 'DU-145 prostate', 'TGI', '> 100 µM'),
  ('CN(C)CCNC(=O)c1cccc2ccc(-c3ccc(O)cc3)nc12', 'DU-145 prostate', 'TGI', '10.6 µM'),
  ('COC(=O)C1c2cc3c(cc2C(OC2OC(C)C(OC)C(C)(OC)C2OC)CC1(C)O)C(=O)c1c(O)cc2c(c1C3=O)OC1OC2(C)C(O)C([N+](C)(C)[O-])C1O (configuration not stated)', 'DU-145 prostate', 'TGI', '> 30.1 µM'),
  ('COC(=O)c1c(O)ccc2c1c1c(n2Cc2cc(OC)cc(OC)c2)C(=O)c2ccccc2C1', 'DU-145 prostate', 'TGI', '> 100 µM'),
  ('COC(=O)COc1ccccc1/C=C1\N=C(c2ccccc2)N(c2cc(C(F)(F)F)ccc2Cl)C1=O', 'DU-145 prostate', 'TGI', '47.1 µM'),
  ('N#Cc1n[nH]n(-c2ccc(Br)cc2)c1=O', 'DU-145 prostate', 'TGI', '> 100 µM'),
  ('CNCc1ccccc1-c1csc([C@@H](C)Nc2nc(C)nc3cc(OC)c(OC)cc23)c1', 'DU-145 prostate', 'TGI', '15.6 µM'),
  ('O=C1Sc2cc3ccccc3cc2C(=O)Sc2ccc(Br)cc21', 'DU-145 prostate', 'TGI', '16.9 µM'),
  ('COc1cc(C2c3cc4c(cc3OC(N3CCCCC3)C2C)OCO4)cc(OC)c1O (configuration not stated)', 'DU-145 prostate', 'TGI', '49.6 µM'),
  ('CC[As](CC)SC[C@H](C)C(=O)N1CCC[C@H]1C(=O)O', 'DU-145 prostate', 'TGI', '0.104 µM'),
  ('[N-]=[N+]=Nc1c([N+](=O)[O-])c(=O)n(-c2ccccc2)c2ccccc12', 'DU-145 prostate', 'TGI', '> 100 µM'),
  ('Nc1nn2cc(F)cnc2c1C(=O)Nc1cncc(F)c1N1CCC(C(=O)N2CCN(C3COC3)CC2)CC1', 'DU-145 prostate', 'TGI', '> 100 µM'),
  ('CC1(C)/C(=N\NC(N)=O)C2CCC1C2 (configuration not stated)', 'DU-145 prostate', 'TGI', '> 100 µM'),
  ('COc1cccc(C(=O)Oc2ccc(OS(=O)(=O)c3ccc(C)cc3)cc2)c1C#N', 'DU-145 prostate', 'TGI', '> 100 µM'),
  ('CC1(C)CC(=O)C(C=NC(=S)c2ccccc2)=C(O)C1', 'DU-145 prostate', 'TGI', '> 100 µM');

* * *

Tested on: KM12 colon
Assay: NCI tumour cell line growth inhibition, 48 h; in the data active = GI50 below about 0.43 µM; inactive = the rest
Possible outcomes: 1 (yes) (active), 0 (no) (inactive)

INSERT INTO results (structure_as_smiles, assigned_category) VALUES
  ('C/C=C(\C)C(=O)O[C@H]1C=CC(=O)O[C@H]1CCC(=O)[C@H](C)O', '0 (no)'),
  ('O=C(Nc1ccc(Br)cc1F)c1cc(F)ccc1O', '0 (no)'),
  ('Oc1ccc(Nc2ncnc3c2sc2ncccc23)cc1', '0 (no)'),
  ('COc1cccc(CC(C)=C(c2ccc(OCCN(C)C)cc2)c2ccc(OCCN(C)C)cc2)c1', '0 (no)'),
  ('COc1ccccc1/C=N\N/C(N)=N\N=C\c1ccccc1OC', '1 (yes)');

* * *

Tested on: NCI-H23 lung
Assay: NCI tumour cell line growth inhibition, 48 h
Below, each of the compounds is paired with its reported TGI value.
Readout name: TGI

INSERT INTO results (compound, meas_value) VALUES
  ('COc1cccc(CC(C)=C(c2ccc(OCCN(C)C)cc2)c2ccc(OCCN(C)C)cc2)c1', '9.24 µM'),
  ('O=C(Nc1ccc2ncccc2c1)Nc1ccc2ncccc2c1', '> 100 µM'),
  ('CC(C)CCC1CC2C(=O)N(c3ccccc3)C(=O)C2c2[nH]c3ccccc3c21 (stereo unspecified)', '12.9 µM'),
  ('N#Cc1n[nH]n(-c2ccc(Br)cc2)c1=O', '> 100 µM'),
  ('C[N+](C)(C)CC1CCCc2ccccc2C1=O (stereo unspecified)', '35 µM'),
  ('COc1cc(OC)cc(Oc2nc3ccccc3nc2C(F)(F)F)c1', '> 100 µM');

* * *

Tested on: NCI-H460 lung
Assay: NCI tumour cell line growth inhibition, 48 h
Readout name: TGI

INSERT INTO results (compound, readout_name, meas_value) VALUES
  ('O=c1[nH]nnc2c1sc1ncccc12', 'TGI', '> 100 µM'),
  ('CCN(CC)CCCN1CCc2c([nH]c3ccccc23)C1c1cccnc1 (stereo unspecified)', 'TGI', '> 100 µM'),
  ('O=C1c2cccc3c2C(=O)c2c(cccc21)OCCOCCOCCOCCO3', 'TGI', '> 100 µM'),
  ('CCOC(=O)c1cnc2c(ccc3[nH]n(C)nc32)c1=O', 'TGI', '> 100 µM'),
  ('CC1(C)CC(=O)C(C=NC(=S)c2ccccc2)=C(O)C1', 'TGI', '> 100 µM'),
  ('C/C=C/C(CC(O)(C(F)(F)F)C(F)(F)F)=N/NC(N)=S', 'TGI', '> 10 µM');

* * *

Tested on: KM20L2 colon
Assay: NCI tumour cell line growth inhibition, 48 h
Readout name: TGI

INSERT INTO measurements (molecule, system_name, meas_value) VALUES
  ('CC(C)Cc1ccc(C(C)C(=O)N2CCN(/C=C/c3ccccc3)CC2)cc1 (centres undefined)', 'KM20L2 colon', '29.9 µM'),
  ('N#CN/C(N)=N/CO', 'KM20L2 colon', '> 100 µM'),
  ('Nc1nc(Cl)cc(NCCCCCCCCNc2cc(Cl)nc(N)n2)n1', 'KM20L2 colon', '> 100 µM'),
  ('N.N.N.N.O=C([O-])CCl.O=C([O-])CCl.[Co+3].[O-][Cl+3]([O-])([O-])[O-]', 'KM20L2 colon', '> 100 µM'),
  ('CC(=O)CCn1ncc(Cl)c(Cl)c1=O', 'KM20L2 colon', '36.2 µM'),
  ('O=c1/c(=C/c2ccccc2[N+](=O)[O-])sc2nnc(-c3ccco3)n12', 'KM20L2 colon', '> 100 µM'),
  ('O=C1CCC(Cl)=CC2CCCN12 (centres undefined)', 'KM20L2 colon', '> 100 µM'),
  ('O=C1c2cccc3c2C(=O)c2c(cccc21)OCCOCCOCCOCCO3', 'KM20L2 colon', '> 100 µM'),
  ('CC12C/C(=C\c3ccccc3)C(=O)C3C1CCCC32', 'KM20L2 colon', '> 100 µM');

* * *

Test system: SF-295 CNS
Assay: NCI tumour cell line growth inhibition, 48 h
Readout name: TGI

INSERT INTO measurements (compound, readout_name, meas_value) VALUES
  ('Nc1nc(Cl)cc(NCCCCCCCCNc2cc(Cl)nc(N)n2)n1', 'TGI', '92.1 µM'),
  ('Nc1nn2cc(F)cnc2c1C(=O)Nc1cncc(F)c1N1CCC(C(=O)N2CCN(C3COC3)CC2)CC1', 'TGI', '1.86 µM'),
  ('COC(=O)C(C(=O)c1ccccc1)C(C(=O)C(=O)Nc1ccc(OC)cc1OC)C(=O)C(=O)c1ccc(C)cc1 (centres undefined)', 'TGI', '> 100 µM'),
  ('CCOC(=O)Nc1[nH]cc(-c2ccccc2)c1C#N', 'TGI', '> 100 µM'),
  ('COc1ccc(OC)c2c1[nH]c(=O)c1c3ccccc3cn21', 'TGI', '2.7 µM'),
  ('CN1CCc2c([nH]c3ccccc23)C1', 'TGI', '> 100 µM'),
  ('CC(C)Cc1ccc(C(C)C(=O)N2CCN(/C=C/c3ccccc3)CC2)cc1 (centres undefined)', 'TGI', '32.2 µM'),
  ('O=C1Nc2cccc(Cl)c2/C1=C\c1c(Cl)nc2n1CCS2', 'TGI', '> 100 µM'),
  ('CC1=C(C)CC2C(=O)N(c3cc(C(C)(C)C)ccc3C(C)(C)C)C(=O)C2C1 (centres undefined)', 'TGI', '> 100 µM'),
  ('Cc1ccnc2[nH]c(-c3ccc4ccccc4c3)cc(=O)c12', 'TGI', '10.9 µM'),
  ('CCCC(=O)NC(NC1CCCCC1)(C(=O)OCC)C(F)(F)F (centres undefined)', 'TGI', '> 100 µM'),
  ('CC(=O)Nc1sc(Br)cc1S(=O)(=O)c1ccc(Cl)cc1', 'TGI', '> 100 µM'),
  ('COC(=O)/C=C(\C(=O)OC)C1C(=O)Oc2c(C)c(=O)c3ccccc3n21 (centres undefined)', 'TGI', '> 100 µM'),
  ('CN1CC(=O)N2Cc3ccccc3-n3cccc3C2C1 (centres undefined)', 'TGI', '> 100 µM');
